- Tested On: Muscarinic acetylcholine receptor M1 (Homo sapiens) (UniProt P11229)
- Sequence (P11229 whole entry, looked up): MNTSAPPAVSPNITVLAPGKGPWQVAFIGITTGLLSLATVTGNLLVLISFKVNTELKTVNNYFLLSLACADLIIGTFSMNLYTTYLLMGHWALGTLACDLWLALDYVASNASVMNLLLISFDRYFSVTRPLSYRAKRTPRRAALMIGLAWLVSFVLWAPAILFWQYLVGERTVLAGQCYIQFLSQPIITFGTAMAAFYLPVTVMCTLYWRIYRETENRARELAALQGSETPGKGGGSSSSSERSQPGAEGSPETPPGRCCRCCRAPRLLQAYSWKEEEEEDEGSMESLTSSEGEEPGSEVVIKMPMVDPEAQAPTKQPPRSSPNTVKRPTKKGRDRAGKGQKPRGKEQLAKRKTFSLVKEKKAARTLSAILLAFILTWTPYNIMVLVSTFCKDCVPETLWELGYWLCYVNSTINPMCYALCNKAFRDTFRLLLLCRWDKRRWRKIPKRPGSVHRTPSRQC
- Test Name: Cholinergic receptor muscarinic 1 (CHRM1) small molecule antagonists, cell-based qHTS assay (AID 1963588); also: nearly all actives have a fitted effect of over 40% in size
- Run Parameters: CHRM1-CHO antagonist mode, calcium flux fluorescence; series mostly up to 61.5 µM
Results filed as inconclusive are left out. The source made the active and inactive calls. Calls follow the shape of the full dose curve. Bridge positions count the residues as written; N and C are the ends. Square brackets hold non-standard residues; d marks the D form. Peptide text beside a SMILES is read from it. hArg = N=C(N)NCCCC[C@H](N)C(=O)O; Mpa = O=C(O)CCS
The categories you may choose from are active, inactive

IN: Kindly provide the recorded test outcome for the following compound: CCCC[N+](CCCC)(CCCC)CCCC
OUT: inactive

IN: Consider next the compound O=C(O)c1cc(I)cc(I)c1I in the same way.
OUT: inactive

IN: Consider next the compound CCOP(=O)(O)C(N)=O in the same way.
OUT: inactive

IN: Consider next the compound C#C[C@]1(O)C=C[C@H]2[C@@H]3CCC4=CC(=O)CC[C@@H]4[C@H]3CC[C@@]21CC in the same way.
OUT: inactive

IN: Consider next the compound O=C(O)c1cc[c]([Hg][Cl])cc1 in the same way.
OUT: inactive

IN: Consider next the compound CC(C)C[C@H](NC(=O)CNC(=O)[C@H](Cc1ccc(O)cc1)NC(=O)[C@H](CO)NC(=O)[C@H](Cc1c[nH]c2ccccc12)NC(=O)[C@H](Cc1cnc[nH]1)NC(=O)[C@@H]1CCC(=O)N1)C(=O)N[C@@H](CCCN=C(N)N)C(=O)N1CCC[C@H]1C(=O)NCC(N)=O (stereo in doubt) in the same way.
OUT: inactive

IN: Consider next the compound CNC(=O)N(C)c1nc2ccccc2s1 in the same way.
OUT: inactive

IN: Consider next the compound Oc1c(Cl)cc(Cl)cc1Cl in the same way.
OUT: inactive

IN: Consider next the compound CC(C)=CC1C(C(=O)OCc2coc(Cc3ccccc3)c2)C1(C)C (stereo unspecified) in the same way.
OUT: inactive

IN: Consider next the compound CCCCNC(=O)OCC#CI in the same way.
OUT: inactive

IN: Consider next the compound Cc1ccccc1CO[C@@H]1C[C@@]2(C(C)C)CC[C@]1(C)O2 in the same way.
OUT: inactive

IN: Consider next the compound Cc1cnc2c(C(=O)O)c(Cl)ccc2c1 in the same way.
OUT: inactive

IN: Consider next the compound CCCCC/C=C\C/C=C\C/C=C\C/C=C\CCCC(=O)NCC(=O)O in the same way.
OUT: inactive

IN: Consider next the compound [CH3][Hg][Cl] in the same way.
OUT: inactive

IN: Consider next the compound Nc1ccc([N+](=O)[O-])cc1Cl in the same way.
OUT: inactive

IN: Consider next the compound CCCSP(=S)(OCC)Oc1ccc(SC)cc1 (stereo unspecified) in the same way.
OUT: inactive

IN: Consider next the compound CCN(CC)c1nc(C)cc(OP(=S)(OC)OC)n1 in the same way.
OUT: inactive

IN: Consider next the compound COC(N)=O in the same way.
OUT: inactive

IN: Consider next the compound CNNC in the same way.
OUT: inactive

IN: Consider next the compound CN(C)C1CCCCC1 in the same way.
OUT: inactive

IN: Consider next the compound CC(=O)/C=C/c1ccc2c(c1)OCO2 in the same way.
OUT: inactive

IN: Consider next the compound N#Cc1c2ccccc2cc2ccccc12 in the same way.
OUT: inactive

IN: Consider next the compound O=[N+]([O-])c1ccc(CCl)cc1 in the same way.
OUT: inactive

IN: Consider next the compound Cc1ccc(C)c2ccccc12 in the same way.
OUT: inactive

IN: Consider next the compound O=C1CN=C(c2ccccc2)c2cc(Cl)ccc2N1CC1CC1 in the same way.
OUT: inactive

IN: Consider next the compound Cc1ccccc1C(=O)Nc1cccc(OC(C)C)c1 in the same way.
OUT: inactive

IN: Consider next the compound CCCCCCCC(=O)Cl in the same way.
OUT: inactive

IN: Consider next the compound CCOP(=S)(OCC)Oc1ccc(Cl)cc1Cl in the same way.
OUT: inactive

IN: Consider next the compound ClC(Cl)=C(c1ccc(Cl)cc1)c1ccccc1Cl in the same way.
OUT: inactive

IN: Consider next the compound O=C1OC(CCN2CCCCC2)OC1(c1ccccc1)c1ccccc1 (stereo unspecified) in the same way.
OUT: active

IN: Consider next the compound c1cc2ccc3cccc4ccc(c1)c2c34 in the same way.
OUT: inactive

IN: Consider next the compound Oc1cccc(Cl)c1Cl in the same way.
OUT: inactive

IN: Consider next the compound O=C1Nc2ccc(Cl)cc2C(c2ccccc2)=NC1O (stereo unspecified) in the same way.
OUT: inactive

IN: Consider next the compound COC(C)(C)CCC[C@H](C)C/C=C/C(C)=C/C(=O)OC(C)C in the same way.
OUT: inactive

IN: Consider next the compound COc1cc(CC(C)N)cc(OC)c1OC (stereo unspecified) in the same way.
OUT: inactive

IN: Consider next the compound NC(=O)[C@@H]1CSSCCC(=O)N[C@@H](CCCCN=C(N)N)C(=O)NCC(=O)N[C@@H](CC(=O)O)C(=O)N[C@@H](Cc2c[nH]c3ccccc23)C(=O)N2CCC[C@H]2C(=O)N1 ([Mpa][hArg]GDWPC-NH2; disulfide 1-7) in the same way.
OUT: inactive

IN: Consider next the compound CCCN(CCC)c1c([N+](=O)[O-])cc(C(F)(F)F)cc1[N+](=O)[O-] in the same way.
OUT: inactive

IN: Consider next the compound Oc1ccccc1Br in the same way.
OUT: inactive

IN: Consider next the compound CC1N=C(N)OC1c1ccccc1 (stereo unspecified) in the same way.
OUT: inactive

IN: Consider next the compound CC#Cc1cc(C)nc(Nc2ccccc2)n1 in the same way.
OUT: inactive

IN: Consider next the compound O=NN1CCNCC1 in the same way.
OUT: inactive

IN: Consider next the compound CC[C@H](O)C(C[C@H](C)N(C)C)(c1ccccc1)c1ccccc1 in the same way.
OUT: active

IN: Consider next the compound O=C(NC(=O)c1c(F)cccc1F)Nc1cc(Cl)c(F)c(Cl)c1F in the same way.
OUT: inactive

IN: Consider next the compound c1ccc(OCC2CO2)cc1 (stereo unspecified) in the same way.
OUT: inactive

IN: Consider next the compound COC(=O)c1ccccc1S(=O)(=O)NC(=O)Nc1nc(C)cc(C)n1 in the same way.
OUT: inactive

IN: Consider next the compound CSC(C)(C)/C=N/O in the same way.
OUT: inactive

IN: Consider next the compound S=C=NCCc1ccccc1 in the same way.
OUT: inactive

IN: Consider next the compound Cc1c([N+](=O)[O-])c(C)c([N+](=O)[O-])c(C(C)(C)C)c1[N+](=O)[O-] in the same way.
OUT: inactive

IN: Consider next the compound CO/C=C(/C(=O)OC)c1ccccc1COc1cccc(C(F)(F)F)n1 in the same way.
OUT: inactive

IN: Consider next the compound S=C(SSC(=S)N1CCCCC1)N1CCCCC1 in the same way.
OUT: inactive

IN: Consider next the compound CC(=O)CN(CC(C)=O)N=O in the same way.
OUT: inactive
